Test system: SEM cells
measurement-notes: cell viability relative to DMSO control; higher = less cytotoxic
measurement-context: RPMI 5 mM glucose + 10% FBS; 48 h; 15.4 µM
endpoint-label: cell viability (%)
Give your result in % as a bare value.

Reference set, count: 2
| input-smiles | endpoint-label | value-unit | reported-value |
| --- | --- | --- | --- |
| COc1ccc(C[C@@H](C)[C@@H](C)Cc2ccc(OC)c(OC)c2)cc1OC | cell viability | % | 16.7 |
| CC1=C(/C=C/C(C)=C/C=C/C(C)=C/C=C/C=C(C)/C=C/C=C(C)/C=C/C2=C(C)CCCC2(C)C)C(C)(C)CCC1 | cell viability | % | 104 |

Recorded cell viability (compound CO[C@H]1/C=C/O[C@@]2(C)Oc3c(C)c(O)c4c(O)c(c5c(nc6cc(C)ccn65)c4c3C2=O)NC(=O)/C(C)=C\C=C\[C@H](C)[C@H](O)[C@@H](C)[C@@H](O)[C@@H](C)[C@H](OC(C)=O)[C@@H]1C ): 63.1
